Record form. Attribute: combination Emax. Fill in for each entry.
test system: JHH-1 (Hepatocellular Carcinoma); assay: combination Emax (second highest fraction inhibited in the dose matrix, 72 h); higher = more inhibition; extreme values may be limits of the assay

Entry Cn1cnc2c(F)c(Nc3ccc(Br)cc3Cl)c(C(=O)NOCCO)cc21 [Selumetinib] + C=CCn1c(=O)c2cnc(Nc3ccc(N4CCN(C)CC4)cc3)nc2n1-c1cccc(C(C)(C)O)n1 [AZD1775] (first compound max 10 µM, partner max 1 µM) has what combination Emax? 0.599

Continue with Cc1c2c(nn1C)CSCc1cc(n(C)n1)CSc1cc(c3ccccc3c1)OCCCc1c(C(=O)O)n(C)c3c-2c(Cl)ccc13 [AZD5991] + CC1(C)CCC(CN2CCN(c3ccc(C(=O)NS(=O)(=O)c4ccc(NCC5CCOCC5)c([N+](=O)[O-])c4)c(Oc4cnc5[nH]ccc5c4)c3)CC2)=C(c2ccc(Cl)cc2)C1 [Venetoclax] (first compound max 1 µM, 7x7, partner max 1 µM) 0.963

Continue with Cc1c2c(nn1C)CSCc1cc(n(C)n1)CSc1cc(c3ccccc3c1)OCCCc1c(C(=O)O)n(C)c3c-2c(Cl)ccc13 [AZD5991] + Cc1cc2ncnn2cc1Nc1ncc2c(n1)n(C1CCOCC1)c(=O)n2C [AZD7648] (first compound max 1 µM, 7x7, partner max 10 µM) 0.35

Continue with COc1cccc(OCCCN)c1-c1cc(Nc2cnc(C#N)cn2)n[nH]1 [Prexasertib] + C[C@@H]1COCCN1C2=NC(=NC(=C2)C3(CC3)[S@](=N)(=O)C)C4=C5C=CNC5=NC=C4 [AZD6738] (first compound max 1 µM, 7x7, partner max 10 µM) 0.579

Continue with CCc1c2c(nc3ccc(O)cc13)-c1cc3c(c(=O)n1C2)COC(=O)[C@]3(O)CC [SN-38] + CN(C)CCCOc1ccc(-c2ccc3ncc4c(c3c2)n(C2CCOCC2)c(=O)n4C)cn1 [AZD0156] (first compound max 0.3 µM, 7x7, partner max 1 µM) 0.316

Continue with COc1nnc2ccc(N3CCC(c4ccc(OCCN5CCN(C)C(=O)[C@H]5C)cc4)CC3)nn12 [AZD5153] + C[C@@H]1COCCN1C2=NC(=NC(=C2)C3(CC3)[S@](=N)(=O)C)C4=C5C=CNC5=NC=C4 [AZD6738] (first compound max 1 µM, 7x7, partner max 10 µM) 0.663

Continue with NC1(C(=O)N[C@@H](CCO)c2ccc(Cl)cc2)CCN(c2ncnc3[nH]ccc23)CC1 [Capivasertib] + COc1nnc2ccc(N3CCC(c4ccc(OCCN5CCN(C)C(=O)[C@H]5C)cc4)CC3)nn12 [AZD5153] (first compound max 10 µM, 7x7, partner max 1 µM) 0.378

Continue with CN(CCO)CC[C@H](CSc1ccccc1)Nc1ccc(S(=O)(=O)NC(=O)c2ccc(N3CCC([C@@H](O)c4ccccc4-c4ccc(Cl)cc4)CC3)cc2)cc1S(=O)(=O)C(F)(F)F [AZD4320] + C[C@@H]1COCCN1C2=NC(=NC(=C2)C3(CC3)[S@](=N)(=O)C)C4=C5C=CNC5=NC=C4 [AZD6738] (first compound max 1 µM, 7x7, partner max 10 µM) 0.838

Continue with Cc1cc2ncnn2cc1Nc1ncc2c(n1)n(C1CCOCC1)c(=O)n2C [AZD7648] + C=CCn1c(=O)c2cnc(Nc3ccc(N4CCN(C)CC4)cc3)nc2n1-c1cccc(C(C)(C)O)n1 [AZD1775] (first compound max 10 µM, partner max 1 µM) 0.433

Continue with NC1(C(=O)N[C@@H](CCO)c2ccc(Cl)cc2)CCN(c2ncnc3[nH]ccc23)CC1 [Capivasertib] + CCN(CCO)CCCOc1ccc2c(Nc3cc(CC(=O)Nc4cccc(F)c4)[nH]n3)ncnc2c1 [AZD2811] (first compound max 10 µM, 7x7, partner max 1 µM) 0.232
